Below: molecules with IC50 recorded for Protease (Human immunodeficiency virus 1, UniProt Q9YQ12) in separate published works.
MEASURE_NAME: IC50 (µM)

Solved cases below.
[
  {
    "MOLECULE": "Cc1c(O)cccc1N(CC(=O)N[C@@H](Cc1ccccc1)[C@H](O)CN(CC(C)C)S(=O)(=O)c1ccc([N+](=O)[O-])cc1)CC(=O)N1CCOCC1",
    "ASSAY_SYSTEM": "Protease (Human immunodeficiency virus 1, UniProt Q9YQ12)",
    "READOUT_UNITS": "µM",
    "QUANTITATIVE_READOUT": 6.67
  },
  {
    "MOLECULE": "Cc1c(O)cccc1N(CC(=O)N[C@@H](Cc1ccccc1)[C@@H](O)CN(CC(C)C)S(=O)(=O)c1ccc([N+](=O)[O-])cc1)CC(=O)N(C)C",
    "ASSAY_SYSTEM": "Protease (Human immunodeficiency virus 1, UniProt Q9YQ12)",
    "READOUT_UNITS": "µM",
    "QUANTITATIVE_READOUT": 7.41
  }
]

P: COc1cccc2cc(CNCc3cn([C@H]4C[C@H](n5cc(C)c(=O)[nH]c5=O)O[C@@H]4CO)nn3)c(=O)oc12
Q: CC(C)CN(C[C@@H](O)[C@H](Cc1ccccc1)NC(=O)CN(CC(N)=O)[C@H]1CCOC1)S(=O)(=O)c1ccc(N)cc1
Hi there, can you help? I need to know whether P or Q has lower measured IC50. Return value: the label identifying the chosen record.
Q

P: CC1(C)CC[C@]2(CO)CC[C@]3(C)C(=CC[C@@H]4[C@@](C)(CC(=O)O)[C@H](C(C)(C)C(=O)O)CC[C@]43C)[C@H]2C1
Q: COc1ccc(S(=O)(=O)N(CC(C)C)C[C@@H](O)[C@H](Cc2ccccc2)NC(=O)CN[C@H]2CCOC2)cc1OC
Which value of IC50 is smaller, the one for P or the one for Q ? Answer by quoting the chosen item's label.
Q
(Q: 0.31 µM, P: 30.4 µM)

P: CC1(C)CC[C@]2(C(=O)NCCCC(=O)NCC(=O)O)CC[C@]3(C)C(=CC[C@@H]4[C@@]5(C)CC[C@H](OC(=O)c6ccccc6C(=O)O)C(C)(C)[C@@H]5CC[C@]43C)[C@@H]2C1
Q: CC(C)[C@@H](NC(=O)[C@]12CCC(C)(C)C[C@@H]1C1=CC[C@@H]3[C@@]4(C)CCC(=O)C(C)(C)[C@@H]4CC[C@@]3(C)[C@]1(C)CC2)C(=O)O
R: CCc1ccccc1SC1=C(O)CC(CSc2ccccc2)(c2ccccc2)OC1=O (racemic)
S: CC(C)CN(C[C@@H](O)[C@H](Cc1ccccc1)NC(=O)CN(CC(=O)N(C)C)[C@H]1CCOC1)S(=O)(=O)c1ccc(CO)cc1
T: CC(=O)N[C@H](CS(=O)(=O)c1ccc(F)cc1)C(=O)N[C@@H](Cc1ccccc1)[C@H](O)C(=O)N1CSC(C)(C)[C@H]1C(=O)NCc1ccccc1C
rank_up(items): orders items by reported IC50 in ascending numerical order. Rank the items, then write their labels in that order.
T, S, R, P, Q

A: CC(C)C[C@H](NC(=O)[C@H](CSCCOCCOCCSC[C@H](NC(=O)Cc1ccccc1)C(=O)N[C@@H](Cc1ccccc1)C(=O)O)NC(=O)Cc1ccccc1)C(=O)N[C@@H](Cc1ccccc1)C(N)=O
B: CC(C)[C@H](NC(=O)[C@]12CCC(C)(C)C[C@@H]1C1=CC[C@@H]3[C@@]4(C)CC[C@H](O)C(C)(C)[C@@H]4CC[C@@]3(C)[C@]1(C)CC2)C(=O)O
Hey, which is lower on measured IC50, A or B ? Your choice should be expressed through its label.
A
(A: 2.5 µM, B: 10.6 µM)
